B1: HDV Ribozyme (parent)
chain: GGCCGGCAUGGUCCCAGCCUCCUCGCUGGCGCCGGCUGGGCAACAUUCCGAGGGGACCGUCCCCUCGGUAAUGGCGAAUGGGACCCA

Variants of: B1
ASSAY OVERVIEW: self-cleavage, relative activity (ratio to wild type); higher = more cleavage; co-transcriptional
Classification field: rule met = self-cleavage at or over 0.5; rule not met = self-cleavage under 0.5.

Hi team, for G52C A87C , is the recorded self-cleavage at or above 0.5?
rule met

Hi team, for G6A C21U , is the recorded self-cleavage at or above 0.5?
rule not met

Hi team, for C13A A56U , is the recorded self-cleavage at or above 0.5?
rule not met

Hi team, for C15U G40C , is the recorded self-cleavage at or above 0.5?
rule not met

Hi team, for C22A U37A , is the recorded self-cleavage at or above 0.5?
rule not met

New cases:
Hi team, for "G31U" , is the recorded self-cleavage at or above 0.5?
rule not met

Hi team, for C7A C86A , is the recorded self-cleavage at or above 0.5?
rule met
